Experiment: Effective concentration for lipogenesis induced by retinoid X receptor alpha in C3H10T1/2 clone 8 fibroblast cells
Readout: EC50 (nM)

(P) CC1(C)CCC(C)(C)c2cc(C3CCCc4sc(/C=C/C(=O)O)cc43)ccc21 (stereo not drawn)
(Q) Cc1oc(/C=C/C(=O)O)cc1Cc1ccc2c(c1)C(C)(C)CCC2(C)C
(R) CC1(C)CCC(C)(C)c2cc(C3CCCc4oc(/C=C/C(=O)O)cc43)ccc21 (stereo not drawn)
(S) Cc1cc2c(cc1C1CCCc3oc(/C=C/C(=O)O)cc31)C(C)(C)CCC2(C)C (stereo not drawn)
input: Using the recorded EC50, list the entries above from smallest to largest. Order the labels as requested and list them.
output: P, R, Q, S

(1) CC1(C)CCC(C)(C)c2cc(C3CCCc4oc(/C=C/C(=O)O)nc43)ccc21 (stereo not drawn)
(2) CN1Cc2oc(/C=C/C(=O)O)cc2C(c2ccc3c(c2)C(C)(C)CCC3(C)C)C1 (stereo not drawn)
(3) CC1(C)CCC(C)(C)c2cc(C3CCCc4oc(C=C5SC(O)=NC5=O)cc43)ccc21 (stereo not drawn)
(4) C/C(=C\C(=O)O)c1cc2c(o1)CCCC2c1ccc2c(c1)C(C)(C)CCC2(C)C (stereo not drawn)
input: Please list these compounds in decreasing order of EC50. Order the labels as requested and list them.
output: 1, 2, 4, 3
(1: 749 nM, 2: 22 nM, 4: 10 nM, 3: 5 nM)

* * *

Molecular target: Retinoic acid receptor RXR-alpha (Homo sapiens, UniProt P19793)
Sequence (P19793 whole entry): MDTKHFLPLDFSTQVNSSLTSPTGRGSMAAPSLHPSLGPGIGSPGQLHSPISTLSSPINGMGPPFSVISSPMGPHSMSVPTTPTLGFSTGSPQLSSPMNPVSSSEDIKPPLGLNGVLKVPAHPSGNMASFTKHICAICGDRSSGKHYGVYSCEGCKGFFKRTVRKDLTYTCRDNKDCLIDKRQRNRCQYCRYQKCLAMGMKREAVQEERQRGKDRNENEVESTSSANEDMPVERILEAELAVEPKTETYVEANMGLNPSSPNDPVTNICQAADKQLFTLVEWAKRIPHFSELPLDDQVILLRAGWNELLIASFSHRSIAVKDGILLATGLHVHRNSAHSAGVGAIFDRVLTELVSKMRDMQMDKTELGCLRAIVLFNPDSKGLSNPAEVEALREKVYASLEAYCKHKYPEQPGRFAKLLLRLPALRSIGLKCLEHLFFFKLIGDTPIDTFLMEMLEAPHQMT
Experiment: Effective concentration for lipogenesis induced by retinoid X receptor alpha in C3H10T1/2 clone 8 fibroblast cells
Readout: pEC50
To interpret pEC50, take it as minus log10 of a concentration measured in moles per litre.

input: Supply pEC50 value. Item: CC1(C)CCC(C)(C)c2cc(C3CCCc4oc(/C=C/C(=O)O)cc43)ccc21 (stereo unspecified)
output: 8.40

* * *

Experiment: Inhibitory concentration for lipogenesis induced by retinoic acid receptor alpha in C3H10T1/2 clone 8 fibroblast cells
Readout: IC50

input: Supply IC50 value. Item: CCCOc1cc2c(cc1C1CCCc3oc(/C=C/C(=O)O)cc31)C(C)(C)CCC2(C)C (stereo unspecified)
output: > 1000 nM

* * *

Experiment: Effective concentration for lipogenesis induced by retinoid X receptor alpha in C3H10T1/2 clone 8 fibroblast cells; Partial agonist
Readout: EC50 (nM)

(1) CCCOc1cc2c(cc1C1CCCc3oc(/C=C/C(=O)O)cc31)C(C)(C)CCC2(C)C (configuration not stated)
(2) COc1cc2c(cc1C1CCCc3oc(/C=C/C(=O)O)cc31)C(C)(C)CCC2(C)C (configuration not stated)
input: Lower value of EC50 belongs to which: 1 or 2 ? Give the label of your selection.
output: 1
